assayRemarks: AUC (0 to infinity) in Sprague-Dawley rat at 5 mg/kg, iv measured upto 24 hrs by LC/MS/MS analysis
Assay type: ADME, organism-based
Parameters: time < 24 hrs, dose 5 mg/kg, route iv
testContext: in vivo
measuredParameter: AUC(0-inf) (ng·h/mL)

[[record]]
smilescode = "O=c1cc(N2CCN(CC3CCCCC3)CC2)sc2c([N+](=O)[O-])cc(C(F)(F)F)cc12"
reading = 1580

[[record]]
smilescode = "O=C(O)/C=C\\C(=O)O.O=c1cc(N2CCN(CC3CCCCC3)CC2)sc2c([N+](=O)[O-])cc(C(F)(F)F)cc12"
reading = 1740

[[record]]
smilescode = "Cl.O=c1cc(N2CCN(CC3CCCCC3)CC2)sc2c([N+](=O)[O-])cc(C(F)(F)F)cc12"
reading = 1940


Provenance of the data: ChEMBL document CHEMBL5352469
